As shown below, each of these binders has a reported interaction score value.
target: T1, 4H3112-AA
T1 chain: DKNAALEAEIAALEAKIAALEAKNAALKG
method_description: two-hybrid library CCmax;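 note: natural log of median RNA to DNA barcode read ratio; higher means stronger binding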
details: mean of both orientations
reported_endpoint: interaction score

binder	reported_endpoint	test_value
DENAALEAKIAALKAKNAALKAEIAALEG [4H1401-AA]	interaction score	-1.06
DKIAALEAEIAALKAKIAALEAKNAALEG [4H2151-AA]	interaction score	-0.356
DKIAALEAENAALKAKIAALEAKIAALEG [4H2277-AA]	interaction score	-1.43
DENAALKAEIAALKAKIAALEAENAALKG [4H1636-AA]	interaction score	-0.658
DKIAALEAKIAALEAKNAALEAEIAALKG [4H2354-AA]	interaction score	-1.26
DENAALEAKNAALEAKIAALEAKIAALKG [4H1446-AA]	interaction score	-0.365
DKIAALEAKNAALEAEIAALKAEIAALKG [4H2442-AA]	interaction score	-1.4
